- Target Entity: T1, Fibrinogen fragment D (human, UniProt P02671 130-216; P02675 164-491; P02679 114-432, limits assumed)
- T1 construct: domain: Fragment D (or D-domain); Made by plasmin digestion of human fibrinogen and purified on GPRPAA beads; holds the C-terminal polymerization pockets without the N-terminal knobs; immobilised by amine coupling on the SPR chip; also called D-domain
- T1 sequence (looked up) 1: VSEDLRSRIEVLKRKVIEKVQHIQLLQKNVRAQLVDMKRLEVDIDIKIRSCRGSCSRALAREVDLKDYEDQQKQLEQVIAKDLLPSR
- T1 sequence (looked up) 2: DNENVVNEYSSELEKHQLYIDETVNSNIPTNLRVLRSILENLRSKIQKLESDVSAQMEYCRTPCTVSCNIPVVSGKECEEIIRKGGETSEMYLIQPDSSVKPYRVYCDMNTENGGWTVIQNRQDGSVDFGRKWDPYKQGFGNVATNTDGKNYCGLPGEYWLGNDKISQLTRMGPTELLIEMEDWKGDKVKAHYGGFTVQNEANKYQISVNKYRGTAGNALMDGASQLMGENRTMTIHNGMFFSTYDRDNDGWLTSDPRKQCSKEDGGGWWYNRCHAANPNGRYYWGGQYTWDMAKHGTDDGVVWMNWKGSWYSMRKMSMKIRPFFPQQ
- T1 sequence (looked up) 3: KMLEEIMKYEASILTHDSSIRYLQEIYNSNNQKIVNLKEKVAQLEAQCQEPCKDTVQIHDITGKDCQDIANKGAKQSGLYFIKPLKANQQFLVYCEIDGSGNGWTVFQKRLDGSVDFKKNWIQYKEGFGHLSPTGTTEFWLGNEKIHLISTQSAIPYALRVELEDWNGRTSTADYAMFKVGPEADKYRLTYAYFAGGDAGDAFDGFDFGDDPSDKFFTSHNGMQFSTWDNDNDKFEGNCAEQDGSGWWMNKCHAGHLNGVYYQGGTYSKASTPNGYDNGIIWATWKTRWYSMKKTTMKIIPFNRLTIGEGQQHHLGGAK
- Test: SPR, fragment D immobilised, heterogeneous ligand model, site 1
- Method: Upon stabilization of the baseline signal, kinetic binding experiments were run in duplicate with the peptide variants as the flow analytes. […] To investigate the dynamic binding profile between the fibrinogen/fibrin holes and knob peptide variants, SPR was employed. Binding interactions were evaluated by flowing the knob peptides over an immobilized surface of fragment D (FIG. 8). […]
Parameter Measured: Bmax (maximal binding capacity of fragment D, site 1) (RU)

[[record]]
binder = "GPRPFPAC (Synthetic (GenScript); also called knob 'A' peptide)"
measured_value = 17.6

[[record]]
binder = "GPRPAAC (Synthetic (GenScript); kept reduced with immobilised TCEP; also called gold standard GPRP mimic; knob 'A' peptide)"
measured_value = 19.4


[1] GPRVVAAC (Synthetic (GenScript); also called knob 'A' peptide)
[2] GPRPPERC (Synthetic (GenScript); also called knob 'A' peptide)
[3] GPRVVERC (Synthetic (GenScript); also called knob 'A' peptide)
Problem: Write the entries in order, lowest recorded Bmax (maximal binding capacity of fragment D, site 1) first. Give the labels in the order specified.
Solution: 1, 2, 3
(1: 8.36 RU, 2: 14.6 RU, 3: 25.6 RU)
